# Test system: gastric secretion
# Protocol description: Effects on gastric secretion in the pyloric ligated rat (method of Shay et al.)
# Type: in vivo
# Test conditions: intraduodenal, 100 mg/kg i.d., sacrificed 3 hours later, read-out: Table 2 % Inhibition Volume (volume of gastric secretion)
Binary classification by inhibition in vivo at 100 mg/kg, with 50% as an inclusive lower bound for t; all other cases are f.

Asked: # check: inhibition in vivo at 100 mg/kg of `CCO/N=C(\C#N)c1cnccn1` is greater than or equal to 50%
Given back: t

Asked: Test whether the compound `CO/N=C(\C(N)=O)c1ccccn1` records inhibition in vivo at 100 mg/kg of 50% or higher.
Given back: f

Asked: Entry `CO/N=C(/C(N)=O)c1ccccn1` : is its inhibition in vivo at 100 mg/kg no less than 50%?
Given back: f

Asked: Is the recorded value of inhibition in vivo at 100 mg/kg equal to or greater than 50% for this compound? `CO/N=C(/C#N)c1cnc2ccccn12`
Given back: t

Asked: Threshold query (inhibition in vivo at 100 mg/kg >= 50%) on `CO/N=C(\C#N)c1nccc2ccccc12`
Given back: f

Asked: Tell me whether inhibition in vivo at 100 mg/kg is at least 50% here: `CO/N=C(\C#N)c1ccc2ccccc2n1`
Given back: f

Asked: Decide: is the reported value of inhibition in vivo at 100 mg/kg for `CON=C(C#N)c1ccncc1` equal to or greater than 50%?
Given back: t

Asked: Threshold query (inhibition in vivo at 100 mg/kg >= 50%) on `N#C/C(=N\OC1CCCCC1)c1cnccn1`
Given back: t

Asked: Evaluate `CC(C)O/N=C(\C#N)c1cnccn1` : inhibition in vivo at 100 mg/kg at minimum 50%?
Given back: t

Asked: Is it the case that `CON=C(C#N)c1cccc(Cl)n1` has inhibition in vivo at 100 mg/kg reaching or exceeding 50%?
Given back: f

Asked: // inclusive: inhibition in vivo at 100 mg/kg at least 50%? input: `CON=C(C#N)c1ccccn1`
Given back: t

Asked: # check: inhibition in vivo at 100 mg/kg of `CO/N=C(\C#N)c1cnc2ccccc2n1` is greater than or equal to 50%
Given back: f

---

# Tested on: gastric secretion
# Protocol description: Effects on gastric secretion in the pyloric ligated rat (method of Shay et al.)
# Type: in vivo
# Test conditions: intraduodenal, 100 mg/kg i.d., sacrificed 3 hours later, read-out: Table 2 % Inhibition Volume (volume of gastric secretion)
Please respond with reported inhibition in vivo at 100 mg/kg for every item in the list.
Use % as the unit, but write only the number.

Asked: Can you look up the measured inhibition in vivo at 100 mg/kg of CO/N=C(\C#N)c1cnccn1 [5 (Z-isomer), α-Methoxyiminopyrazineacetonitrile] for me?
Given back: 70

Asked: Can you share its inhibition in vivo at 100 mg/kg? I mean this molecule: `CON=C(c1ccccn1)C(F)(F)F`
Given back: 74

Asked: Item `CON=C(C#N)c1cncnc1` has what recorded inhibition in vivo at 100 mg/kg?
Given back: 35

Asked: Given `CO/N=C(\C#N)c1ccnc2ccccc12` , state its recorded inhibition in vivo at 100 mg/kg.
Given back: 85

Asked: Sample `CON=Cc1cnccn1` — what was its inhibition in vivo at 100 mg/kg?
Given back: 42
